- experimental.details: CCTE_Shafer_MEA_dev_per_burst_spike_percent: CCTE's Neural Network Formation Assay for Percent of Spikes in a Burst, Shafer Lab (AID 2284032)
The source made the active and inactive calls. The calls were made as follows: active = hit-call score of the fitted dose curve at least 0.9, where 1 is the maximum; inactive = score below 0.9.
Possible outcomes: active, inactive

[
  {
    "molecule": "Cc1ccc(OP(=O)(Oc2ccc(C)cc2)Oc2ccc(C)cc2)cc1 (tested in a mixture with another compound)",
    "cat": "inactive"
  },
  {
    "molecule": "CCOP(=O)(OCC)OC(Cl)C(Cl)(Cl)Cl (configuration not stated)",
    "cat": "active"
  },
  {
    "molecule": "c1ccc2c(c1)cc1ccc3cccc4ccc2c1c34",
    "cat": "inactive"
  },
  {
    "molecule": "C[n+]1ccc(-c2cc[n+](C)cc2)cc1",
    "cat": "active"
  },
  {
    "molecule": "CCOP(=O)(Oc1cnc(C(C)(C)C)nc1)OC(C)C (configuration not stated)",
    "cat": "inactive"
  },
  {
    "molecule": "C=CCN1CC[C@]23c4c5ccc(O)c4O[C@H]2C(=O)CC[C@@]3(O)[C@H]1C5",
    "cat": "inactive"
  },
  {
    "molecule": "CC1(C)[C@H](C(=O)O[C@H](C#N)c2cccc(Oc3ccccc3)c2)[C@@H]1C=C(Br)Br",
    "cat": "active"
  },
  {
    "molecule": "CC1(C)C(C=C(Cl)c2ccc(Cl)cc2)C1C(=O)OC(C#N)c1ccc(F)c(Oc2ccccc2)c1 (configuration not stated)",
    "cat": "active"
  },
  {
    "molecule": "C#CCN(C)[C@H](C)Cc1ccccc1",
    "cat": "inactive"
  },
  {
    "molecule": "NCCc1cc(O)c(O)cc1O",
    "cat": "active"
  },
  {
    "molecule": "[CH3][Hg][Cl]",
    "cat": "active"
  },
  {
    "molecule": "COC(=O)[C@H]1[C@@H](OC(=O)c2ccccc2)C[C@@H]2CC[C@H]1N2C",
    "cat": "inactive"
  },
  {
    "molecule": "CCOP(=O)(O)OCC (tested in a mixture with another compound)",
    "cat": "inactive"
  },
  {
    "molecule": "Cn1nc(C(F)(F)F)c(CS(=O)(=O)C2=NOC(C)(C)C2)c1OC(F)F",
    "cat": "active"
  },
  {
    "molecule": "CC(=O)[O-].[Tl+]",
    "cat": "inactive"
  },
  {
    "molecule": "C[n+]1ccc(-c2ccccc2)cc1",
    "cat": "inactive"
  },
  {
    "molecule": "CCC1(c2ccccc2)C(=O)NC(=O)NC1=O",
    "cat": "inactive"
  },
  {
    "molecule": "[CH3][Sn]([CH3])[CH3]",
    "cat": "active"
  },
  {
    "molecule": "[Cd+2].[Cl-].[Cl-]",
    "cat": "active"
  },
  {
    "molecule": "CCCCC(CC)COC(=O)c1cc(Br)c(Br)c(Br)c1Br (configuration not stated)",
    "cat": "active"
  },
  {
    "molecule": "CN1C(=O)CN=C(c2ccccc2)c2cc(Cl)ccc21",
    "cat": "active"
  },
  {
    "molecule": "CC1(C)[C@@H](C=C(Cl)Cl)[C@@H]1C(=O)O[C@@H](C#N)c1ccc(F)c(Oc2ccccc2)c1",
    "cat": "active"
  }
]

----------
- target.desc: rat Monoamine Oxidase, MAO-B, Central (MAOBC), Maob (gene 25750)
- experimental.details: NVS_ENZ_rMAOBC: NovaScreen (NVS) Enzymatic Assay for rat Monoamine Oxidase, MAO-B, Central (MAOBC) (AID 2283238)
Inconclusive results are not listed. Activity calls are given as the source filed them. Rule for the calls: active = hit-call score of the fitted dose curve at least 0.9, where 1 is the maximum; inconclusive = response in the unintended direction; inactive = score below 0.9.
Possible outcomes: 1 (yes) = active, 0 (no) = inactive

[
  {
    "compound": "O=C(N[C@@H](Cc1ccccc1)[C@@H](O)C(=O)N1C[C@@H](O)[C@@H](O)C1)c1cc2cc(Cl)ccc2[nH]1",
    "cat": "0 (no)"
  },
  {
    "compound": "Cc1ccc([N+](=O)[O-])cc1N",
    "cat": "1 (yes)"
  },
  {
    "compound": "c1ccc(C(O[C@@H]2CCCN(CCc3ccc4c(c3)OCO4)C2)c2ccccc2)cc1",
    "cat": "1 (yes)"
  },
  {
    "compound": "CCN(CC)CCOc1ccc(C(=C(Cl)c2ccccc2)c2ccccc2)cc1",
    "cat": "1 (yes)"
  },
  {
    "compound": "CC/C(=C\\C(=N/O)C(N)=O)C(C)[N+](=O)[O-] (configuration not stated)",
    "cat": "1 (yes)"
  },
  {
    "compound": "O=C1c2ccccc2C(=O)N1CCc1noc(-c2ccc(CN3CCCCCC3)s2)n1",
    "cat": "1 (yes)"
  },
  {
    "compound": "Oc1ccc2c(c1)-c1ccccc1C2",
    "cat": "1 (yes)"
  },
  {
    "compound": "Cc1c(C)c2c(c(C)c1O)CCC(C)(COc1ccc(CC3SC(=O)NC3=O)cc1)O2 (configuration not stated)",
    "cat": "1 (yes)"
  },
  {
    "compound": "COC(=O)c1ccc(C(=O)OC)cc1",
    "cat": "1 (yes)"
  },
  {
    "compound": "CCc1cc(SCc2sc(-c3ccc(C(F)(F)F)cc3)nc2CN2CCN(c3ccc(OC)cc3)CC2)ccc1OCC(=O)O",
    "cat": "1 (yes)"
  },
  {
    "compound": "CS(=O)(=O)OCCCCOS(C)(=O)=O",
    "cat": "0 (no)"
  },
  {
    "compound": "CC(O)CC(C)(C)O (configuration not stated)",
    "cat": "0 (no)"
  }
]

----------
- target.desc: Cellular tumor antigen p53 (Homo sapiens) (UniProt P04637)
- Sequence (P04637 whole entry, looked up): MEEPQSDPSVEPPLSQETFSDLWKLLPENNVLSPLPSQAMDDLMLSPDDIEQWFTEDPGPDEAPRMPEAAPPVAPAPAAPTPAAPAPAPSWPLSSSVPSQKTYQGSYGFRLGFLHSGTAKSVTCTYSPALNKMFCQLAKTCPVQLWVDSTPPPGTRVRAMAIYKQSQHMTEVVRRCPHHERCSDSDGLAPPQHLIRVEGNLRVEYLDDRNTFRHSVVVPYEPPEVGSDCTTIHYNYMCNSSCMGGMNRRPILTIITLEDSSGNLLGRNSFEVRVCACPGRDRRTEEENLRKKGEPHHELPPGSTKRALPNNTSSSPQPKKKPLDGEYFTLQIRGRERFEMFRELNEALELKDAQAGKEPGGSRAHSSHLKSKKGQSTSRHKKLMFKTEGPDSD
- experimental.details: ATG_p53_CIS: Attagene CIS-FACTORIAL HepG2 Assay for human p53 Transcription Factor (AID 2282994)
- experimental.conditions: HepG2 p53 cis-element reporter, Attagene mRNA; actives raise or lower the signal
Activity calls are given as the source filed them. Rule for the calls: active = hit-call score of the fitted dose curve at least 0.9, where 1 is the maximum; inactive = score below 0.9.
Possible outcomes: TRUE = active, FALSE = inactive

[
  {
    "molecule": "CCCOC(=O)c1ccccc1C(=O)OCCC",
    "cat": "FALSE"
  },
  {
    "molecule": "COc1cc(OC)c(OC)cc1C=O",
    "cat": "FALSE"
  },
  {
    "molecule": "N#Cc1cccc(C#N)c1",
    "cat": "FALSE"
  },
  {
    "molecule": "C#CC1(O)CCCCC1",
    "cat": "FALSE"
  },
  {
    "molecule": "Cc1ncc(C[n+]2csc(CCO)c2C)c(N)n1",
    "cat": "FALSE"
  },
  {
    "molecule": "CC1(C)CC(=O)CC(C)(C)N1[O]",
    "cat": "FALSE"
  },
  {
    "molecule": "c1ccc(Nc2ccc3ccccc3c2)cc1",
    "cat": "FALSE"
  },
  {
    "molecule": "N#CCCCl",
    "cat": "FALSE"
  },
  {
    "molecule": "BrCBr",
    "cat": "FALSE"
  },
  {
    "molecule": "CC(C)(C)C(=O)CCl",
    "cat": "FALSE"
  },
  {
    "molecule": "C=CC(=O)OCCO",
    "cat": "FALSE"
  },
  {
    "molecule": "CC[N+](=O)[O-]",
    "cat": "FALSE"
  },
  {
    "molecule": "CCOC(=O)N(C)N=O",
    "cat": "FALSE"
  },
  {
    "molecule": "CCC(C)c1cc([N+](=O)[O-])cc([N+](=O)[O-])c1OC(=O)C=C(C)C (stereo not given)",
    "cat": "TRUE"
  },
  {
    "molecule": "CC(C)(Cl)Cl",
    "cat": "FALSE"
  },
  {
    "molecule": "CC1CCCC1.[C-]#[O+].[C-]#[O+].[C-]#[O+].[Mn]",
    "cat": "FALSE"
  },
  {
    "molecule": "Cc1ccc(OP(=O)(Oc2ccc(C)cc2)Oc2ccc(C)cc2)cc1 (tested in a mixture with another compound)",
    "cat": "FALSE"
  },
  {
    "molecule": "C=CCN(CC=C)C(=O)C(Cl)Cl",
    "cat": "FALSE"
  },
  {
    "molecule": "CCCCCCCCCCCC#N",
    "cat": "FALSE"
  },
  {
    "molecule": "Nc1ccccc1C(=O)Oc1ccc2ccccc2c1",
    "cat": "FALSE"
  },
  {
    "molecule": "CC1CCC(=O)O1 (stereo not given)",
    "cat": "FALSE"
  },
  {
    "molecule": "ClCC(Cl)Cl",
    "cat": "FALSE"
  },
  {
    "molecule": "CC1(C)C(=O)NC(=O)NC1=O",
    "cat": "FALSE"
  },
  {
    "molecule": "C[C@]12CC[C@H](O)C[C@H]1CC[C@@H]1[C@@H]2C[C@@H](O)[C@]2(C)[C@@H](C3=CC(=O)OC3)CC[C@]12O",
    "cat": "FALSE"
  },
  {
    "molecule": "COC(C)(C)CCC[C@H](C)C/C=C/C(C)=C/C(=O)OC(C)C",
    "cat": "TRUE"
  },
  {
    "molecule": "O=C(O)c1cc[c]([Hg][Cl])cc1",
    "cat": "TRUE"
  },
  {
    "molecule": "CC(=O)c1cc2c(cc1C)C(C)(C)C(C)CC2(C)C (stereo not given)",
    "cat": "FALSE"
  },
  {
    "molecule": "CCCCCCC1CCOC1=O (stereo not given)",
    "cat": "FALSE"
  },
  {
    "molecule": "[Cl-].[Cl-].[Cl-].[Yb+3]",
    "cat": "FALSE"
  },
  {
    "molecule": "CN(C)CCC#N",
    "cat": "FALSE"
  }
]

Reference for the values: PubChem BioAssay (EPA / NIEHS)
